Taken from ChEMBL document CHEMBL3399946.

TARGET_ENTITY: UniProt:P21554
PROCEDURE_DETAILS: Antagonist activity at human CB1 receptor expressed in CHO-RD-HGA16 cells assessed as inhibition of CP55940-induced calcium mobilization incubated for 15 mins prior to CP55940 addition by FLIPR assay
MEASUREMENT_NAME: IC50 (nM)

Check out these entries, answers already filled in.
- MOLECULE: "CCc1c(C(=O)NCCc2ccc(N(C)C)cc2)[nH]c2ccc(Cl)cc12"
  IC50, nM: 787
- MOLECULE: "CCc1c(C(=O)NCCc2ccc([N+](=O)[O-])cc2)[nH]c2ccc(Cl)cc12"
  IC50, nM: 5740
- MOLECULE: "Cc1c(C(=O)NCCc2ccc(N3CCCCC3)cc2)[nH]c2ccc(F)cc12"
  IC50, nM: 279
- MOLECULE: "CCc1c(C(=O)NCCc2cccc(Cl)c2)[nH]c2ccc(Cl)cc12"
  IC50, nM: 831

[1] CCc1c(C(=O)NCCc2ccc(N(CC)CC)cc2)[nH]c2ccc(Cl)cc12
[2] CCCCCCNc1ccc(CCNC(=O)c2[nH]c3ccc(Cl)cc3c2CC)cc1
(Q) Consider 1 and 2 . Which of these has its IC50 at a higher number? State your choice using its label.
(A) 2

---

TARGET_ENTITY: Cannabinoid receptor 1 (Homo sapiens, UniProt P21554)
Sequence (P21554 whole entry): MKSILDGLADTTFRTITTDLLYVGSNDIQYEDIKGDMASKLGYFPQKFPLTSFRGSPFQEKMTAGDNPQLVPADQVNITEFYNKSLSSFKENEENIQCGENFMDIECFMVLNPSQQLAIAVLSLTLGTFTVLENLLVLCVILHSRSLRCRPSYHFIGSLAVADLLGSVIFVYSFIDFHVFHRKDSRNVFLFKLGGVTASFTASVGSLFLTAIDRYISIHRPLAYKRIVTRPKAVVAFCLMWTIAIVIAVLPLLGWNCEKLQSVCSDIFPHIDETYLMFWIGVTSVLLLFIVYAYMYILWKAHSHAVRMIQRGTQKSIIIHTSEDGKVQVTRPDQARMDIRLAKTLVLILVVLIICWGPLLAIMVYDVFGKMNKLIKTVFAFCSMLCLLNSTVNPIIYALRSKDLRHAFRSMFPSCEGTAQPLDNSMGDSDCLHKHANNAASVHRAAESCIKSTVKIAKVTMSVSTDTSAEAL
PROCEDURE_DETAILS: Antagonist activity at human CB1 receptor expressed in CHO-RD-HGA16 cells assessed as inhibition of CP55940-induced calcium mobilization incubated for 15 mins prior to CP55940 addition by FLIPR assay
pIC50: −log10 of the molar value.
MEASUREMENT_NAME: pIC50

- CHEMICAL_SMILES: "O=C(NCCc1ccc(N2CCCCC2)cc1)c1cc2cc(Cl)ccc2[nH]1"
  MEASUREMENT_NAME: "pIC50"
  QUANTITATIVE_READOUT: 6.67
- CHEMICAL_SMILES: "CCc1c(C(=O)NCCc2ccccc2)[nH]c2ccc(Cl)cc12"
  MEASUREMENT_NAME: "pIC50"
  QUANTITATIVE_READOUT: 5.50

[a] CCc1c(C(=O)NCCc2ccc3c(c2)OCO3)[nH]c2ccc(Cl)cc12
[b] CCc1c(C(=O)NCCc2ccc(N3CCCCC3)cc2)[nH]c2ccc(F)cc12
(Q) Consider a and b . Which of these has its pIC50 at a higher number? State your choice using its label.
(A) b
(b: 6.22, a: 5.36)

---

TARGET_ENTITY: Cannabinoid receptor 1 (Homo sapiens)
PROCEDURE_DETAILS: Antagonist activity at human CB1 receptor expressed in CHO-RD-HGA16 cells assessed as inhibition of CP55940-induced calcium mobilization incubated for 15 mins prior to CP55940 addition by FLIPR assay
MEASUREMENT_NAME: IC50 (µM)

- COMPOUND: "CCc1c(C(=O)NCCc2ccc(N(C)C)cc2)[nH]c2ccc(F)cc12"
  READOUT_UNITS: "µM"
  QUANTITATIVE_READOUT: 0.205
- COMPOUND: "CCc1c(C(=O)NCCc2cccc(OC)c2)[nH]c2ccc(Cl)cc12"
  READOUT_UNITS: "µM"
  QUANTITATIVE_READOUT: 2.1
- COMPOUND: "CCN(CC)c1ccc(CCNC(=O)c2cc3cc(F)ccc3[nH]2)cc1"
  READOUT_UNITS: "µM"
  QUANTITATIVE_READOUT: 0.318
- COMPOUND: "CCN(CC)c1ccc(CCNC(=O)c2cc3cc(Cl)ccc3[nH]2)cc1"
  READOUT_UNITS: "µM"
  QUANTITATIVE_READOUT: 0.079
- COMPOUND: "O=C(NCCc1ccc(N2CCCCC2)cc1)c1cc2cc(F)ccc2[nH]1"
  READOUT_UNITS: "µM"
  QUANTITATIVE_READOUT: 0.319

[a] CCc1c(C(=O)NCCc2ccc(C(C)(C)C)cc2)[nH]c2ccc(Cl)cc12
[b] CCc1c(C(=O)NCCc2ccc(N(CC)CC)cc2)[nH]c2ccc(F)cc12
[c] CCc1c(C(=O)NC2CCN(Cc3ccccc3)C2)[nH]c2ccc(Cl)cc12 (stereo not drawn)
(Q) Hey, quick one: sort these by IC50, largest value first please. Put the labels in the requested order and write them down.
(A) c, a, b

[A] CCc1c(C(=O)NCCc2ccccc2Cl)[nH]c2ccc(Cl)cc12
[B] CCc1c(C(=O)NCCc2ccc(Cl)c(Cl)c2)[nH]c2ccc(Cl)cc12
[C] CCc1c(C(=O)NCCc2ccc(N3CCCCC3)cc2)[nH]c2ccc(Cl)cc12
(Q) Sort ascending by IC50. Put the labels in the requested order and write them down.
(A) C, B, A
(C: 0.853 µM, B: 2.17 µM, A: 5.81 µM)
